Target: T1, recombinant Cad-11 EC1 human IgG1 fusion protein (R&D Systems Cat. No. 1790-CA-050) (human, UniProt P55287 54-617, limits assumed)
T1 construct: Bought protein; the catalogue product may hold more of the extracellular region; also called recombinant human Cad-11 EC1; recombinant human Cad-11 fusion protein; not shown: human IgG1 part of the bought fusion protein
T1 sequence: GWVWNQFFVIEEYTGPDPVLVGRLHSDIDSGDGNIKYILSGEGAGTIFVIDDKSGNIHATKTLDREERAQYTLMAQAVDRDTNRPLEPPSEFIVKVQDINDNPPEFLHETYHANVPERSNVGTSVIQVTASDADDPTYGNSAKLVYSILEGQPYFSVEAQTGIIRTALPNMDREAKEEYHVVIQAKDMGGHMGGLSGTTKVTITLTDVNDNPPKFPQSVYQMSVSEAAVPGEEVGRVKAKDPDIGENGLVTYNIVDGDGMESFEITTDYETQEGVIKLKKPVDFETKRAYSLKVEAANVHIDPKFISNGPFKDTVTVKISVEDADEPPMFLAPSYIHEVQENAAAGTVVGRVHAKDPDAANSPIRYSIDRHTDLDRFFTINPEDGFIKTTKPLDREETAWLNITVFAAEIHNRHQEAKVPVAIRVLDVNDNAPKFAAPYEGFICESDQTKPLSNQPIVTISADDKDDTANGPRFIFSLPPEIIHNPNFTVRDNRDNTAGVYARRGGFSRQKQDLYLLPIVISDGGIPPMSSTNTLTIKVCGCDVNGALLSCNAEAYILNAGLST
Test: competition ELISA on coated recombinant human Cad-11 EC1 fusion; competitor biotinylated SYN0012/H1M1 at 0.1 µg/ml
Reported relative IC50 (IC50 of the test antibody divided by that of SYN0012) is given for each of the following binders.

Field: example entries. Status: answers known.
>>> test_result("humanized anti-Cad-11 antibody SDP151 (Vκ3/VH5) (antibody, IgG4, V domains shown, humanized IgG4 (S241P), kappa) VH: EVQLVQSGAEVKKPGASVKVSCKASGYSFTGYFMNWVRQAPGQGLEWIGRINPYTGDTFYNQKFKGRVTITVDKSTSTAYMELSSLRSEDTAVYYCGRLGSRYWYFDVWGQGTTVTVSS VL: DVVMTQTPLSSPVTLGQPASISCRSSQSIIHSNGNTYLEWYLQKPGQSPQLLIYKVSNRFSGVPDRFSGSGSGTDFTLKISRVEAEDVGVYYCFQGSHVPWTFGQGTKLEIK")
"0.72 ratio (column head prints µg/mL)"
>>> test_result("humanized anti-Cad-11 antibody SDP111 (Vκ3/VH1) (antibody, IgG4, V domains shown, humanized IgG4 (S241P), kappa) VH: EVQLVQSGPELKKPGASVKISCKASGYSFTGYFMNWVKQAHGQGLEWIGRINPYTGDTFYNQKFKGRATLTVDKSSSTAYMELVSLSSEDSAVYYCGRLGSRYWYFDVWGQGTTVTVSS VL: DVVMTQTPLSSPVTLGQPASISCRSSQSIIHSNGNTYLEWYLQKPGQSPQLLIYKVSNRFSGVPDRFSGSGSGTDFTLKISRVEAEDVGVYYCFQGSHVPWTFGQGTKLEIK")
"0.68 ratio (column head prints µg/mL)"

Exercise: // relative IC50 (IC50 of the test antibody divided by that of SYN0012) lookup, key: humanized anti-Cad-11 antibody SDP061 (Vκ2/VH1) (antibody, IgG4, V domains shown, humanized IgG4 (S241P), kappa) VH: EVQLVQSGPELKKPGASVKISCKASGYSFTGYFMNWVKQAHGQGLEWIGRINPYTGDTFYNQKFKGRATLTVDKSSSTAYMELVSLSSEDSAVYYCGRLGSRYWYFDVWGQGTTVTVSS VL: DVLMTQTPLSSPVTLGQPASISCRSSQSIIHSNGNTYLEWYLQKPGQSPQLLIYKVSNRFSGVPDRFSGSGSGTDFTLKISRVEAEDVGVYYCFQGSHVPWTFGQGTKLEIK
Solution: 0.47 ratio (column head prints µg/mL)
